Test: Pharmacokinetics of salt forms, single oral dose
Type: in vivo, CD-1 mice
Conditions: male, CD-1, mouse, plasma; PO 10.0 mg/kg vs IV 1.00 mg/kg; read-out: F % (absolute bioavailability)
property: bioavailability (%)

• COCCOc1cnc(Sc2cc(C)c(-c3csc(NC(=O)c4ccncc4)n3)c(C)c2)cn1.Cl [110095-HCl-1007] = 84

* * *

The compounds listed here are annotated with their pIC50.
System: MDA-MB-231
Assay: Antiproliferation assay (MTS), MDA-MB-231 cells
Type: cell-based
Settings: Homo sapiens, MDA-MB-231, 96 h, read-out: Antiproliferative IC50 MDA-MB-231, Table 2
pIC50: −log10 of the molar value.
property: pIC50

• Cc1cc(C)c(-c2csc(NC(=O)Cc3ccncc3)n2)c(C)c1 [II-93] = 6.51
• COc1ccc(Oc2cc(C)c(-c3csc(NC(=O)c4ccnc(F)c4)n3)c(C)c2)cc1 [II-98] = 7.70

* * *

Assay: Pharmacokinetics of salt forms, single oral dose
Format: in vivo, CD-1 mice
Details: male, CD-1, mouse, plasma; PO 10 mg/kg, 6 h; read-out: mean concentration of 110095 in mouse plasma
property: concentration at 6 h (ng/mL)

- COCCOc1cnc(Sc2cc(C)c(-c3csc(NC(=O)c4ccncc4)n3)c(C)c2)cn1.Cl [110095-HCl-1007]: 1140

* * *

Experiment: Pharmacokinetics of salt forms, single IV dose
Type: in vivo, CD-1 mice
Settings: male, CD-1, mouse, in vivo, iv, 1 mg/kg
Experimental: Pharmacokinetics of Hec1 Inhibitor Salts: Pharmacokinetic comparison of different salt forms (HCl, tosylate, mesylate salt) was studied for the compounds as shown in Table 3 below: […] The plasma concentrations of 110095 (compound 27 of Table 1, the free base of all three test articles) were determined by LC MS/MS in the positive MRM mode; all doses were normalized to the freebase (110095) concentration. […]
property: MRT

- COCCOc1cnc(Sc2cc(C)c(-c3csc(NC(=O)c4ccncc4)n3)c(C)c2)cn1.Cl [110095-HCl-1007]: 3.3 h

* * *

Assay: Pharmacokinetics of salt forms, single oral dose
Assay type: in vivo, CD-1 mice
Conditions: male, CD-1, mouse, plasma; PO 10.0 mg/kg
property: AUC(0-inf) (ng·h/mL)

• COCCOc1cnc(Sc2cc(C)c(-c3csc(NC(=O)c4ccncc4)n3)c(C)c2)cn1.Cl [110095-HCl-1007] = 25100

* * *

Assay: Pharmacokinetics of salt forms, single IV dose
Format: in vivo, CD-1 mice
Conditions: male, CD-1, mouse, plasma; IV 1 mg/kg, 1 h; read-out: mean concentration of 110095 in mouse plasma
property: concentration at 1 h (ng/mL)

- COCCOc1cnc(Sc2cc(C)c(-c3csc(NC(=O)c4ccncc4)n3)c(C)c2)cn1.Cl [110095-HCl-1007]: 549

* * *

Experiment: Pharmacokinetics of salt forms, single oral dose
Format: in vivo, CD-1 mice
Conditions: male, CD-1, mouse, plasma; PO 10.0 mg/kg
property: Tmax (h)

• COCCOc1cnc(Sc2cc(C)c(-c3csc(NC(=O)c4ccncc4)n3)c(C)c2)cn1.Cl [110095-HCl-1007] = 1

* * *

Test: Pharmacokinetics of salt forms, single IV dose
Assay type: in vivo, CD-1 mice
Conditions: male, CD-1, mouse, plasma; IV 1 mg/kg, 0.083 h; read-out: mean concentration of 110095 in mouse plasma
Procedure: Pharmacokinetics of Hec1 Inhibitor Salts: Pharmacokinetic comparison of different salt forms (HCl, tosylate, mesylate salt) was studied for the compounds as shown in Table 3 below: […] The plasma concentrations of 110095 (compound 27 of Table 1, the free base of all three test articles) were determined by LC MS/MS in the positive MRM mode; all doses were normalized to the freebase (110095) concentration. […]
property: concentration at […] (ng/mL)

• COCCOc1cnc(Sc2cc(C)c(-c3csc(NC(=O)c4ccncc4)n3)c(C)c2)cn1.Cl [110095-HCl-1007] = 870

Data origin: patent US8999983B2
